# Test system: ncRNAs (SEQ ID NO 28-89)
# protocol_details: ncRNA arrays of melanocytes, keratinocytes, normal skin, melanoma cell lines and patient samples
# Parameters: species or system human
# test_parameters: melanoma patient 4 sample compared to normal skin
ncRNA array expression, patient 4 vs -1: at or above is Satisfied, below is Not satisfied.

SEQ ID NO 87 (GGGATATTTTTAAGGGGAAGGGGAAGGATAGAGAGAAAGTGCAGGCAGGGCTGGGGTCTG; listed as DNA, chemistry not given here; listed as Homo sapiens)	Not satisfied
SEQ ID NO 75 (CAAGTGGGAAGAAAAAGAGCCCTACGTGGTGACATTCTGGAAGGATATCATGGATGATTG; listed as DNA, chemistry not given here; listed as Homo sapiens)	Satisfied
SEQ ID NO 76 (TGTTTCTAATGCATACTGTGAAAGGAAAAAAAATCACAGTTATCCACCTTCTCAGGGCCT; listed as DNA, chemistry not given here; listed as Homo sapiens)	Not satisfied
SEQ ID NO 68 (CAAAAAGAAATCTTGTTTACTTGTAAAAATATAGACTACCTCCTACTTGCCACCGTTAAG; listed as DNA, chemistry not given here; listed as Homo sapiens)	Not satisfied
SEQ ID NO 85 (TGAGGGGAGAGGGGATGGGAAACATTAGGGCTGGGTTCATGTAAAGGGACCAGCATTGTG; listed as DNA, chemistry not given here; listed as Homo sapiens)	Not satisfied
SEQ ID NO 64 (TTGCCTAGGAACAAAGAAGGCTTGTGAGGAGATCAAGGAACTTACATGAAATTGTAGGAA; listed as DNA, chemistry not given here; listed as Homo sapiens)	Satisfied

Qu. Assess whether reported ncRNA array expression, patient 4 for SEQ ID NO 36 (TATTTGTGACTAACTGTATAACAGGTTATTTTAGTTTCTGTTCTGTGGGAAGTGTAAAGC; listed as DNA, chemistry not given here; listed as Homo sapiens) sits at -1 or higher.
Ans. Satisfied

Qu. Assess whether reported ncRNA array expression, patient 4 for SEQ ID NO 79 (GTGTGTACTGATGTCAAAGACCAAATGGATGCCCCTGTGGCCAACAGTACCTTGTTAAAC; listed as DNA, chemistry not given here; listed as Homo sapiens) sits at -1 or higher.
Ans. Satisfied

Qu. Assess whether reported ncRNA array expression, patient 4 for SEQ ID NO 48 (ACTTATATTCAGAGCATGTGGATTGGGACTCTGAAGAACAACTTTATGGTGGACACCTTC; listed as DNA, chemistry not given here; listed as Homo sapiens) sits at -1 or higher.
Ans. Satisfied

Qu. Assess whether reported ncRNA array expression, patient 4 for SEQ ID NO 71 (AAAATTCCAAGAGGGCCTTTTCGAATAGACGCATGAACGGTGTTTGTGTCTGGATCGTCC; listed as DNA, chemistry not given here; listed as Homo sapiens) sits at -1 or higher.
Ans. Satisfied

Qu. Assess whether reported ncRNA array expression, patient 4 for SEQ ID NO 45 (ATTTAGAGAACATTTAAATCTGTAAGGAAGAAAATAATAACGACTCACAATTACATCATT; listed as DNA, chemistry not given here; listed as Homo sapiens) sits at -1 or higher.
Ans. Not satisfied

Qu. Assess whether reported ncRNA array expression, patient 4 for SEQ ID NO 44 (AGCCAACTCACGCTTAGGGAGAACTCATACCGCCTAAATATAAAGGCAATTATATATATA; listed as DNA, chemistry not given here; listed as Homo sapiens) sits at -1 or higher.
Ans. Not satisfied

Qu. Assess whether reported ncRNA array expression, patient 4 for SEQ ID NO 89 (GGACACAGAGAGTCATGCACCAGCCCAGTGAGAACCAATTCAGAGCCAAATGCCAAACCC; listed as DNA, chemistry not given here; listed as Homo sapiens) sits at -1 or higher.
Ans. Not satisfied

Qu. Assess whether reported ncRNA array expression, patient 4 for SEQ ID NO 56 (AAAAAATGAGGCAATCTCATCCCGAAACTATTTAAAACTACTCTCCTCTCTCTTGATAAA; listed as DNA, chemistry not given here; listed as Homo sapiens) sits at -1 or higher.
Ans. Not satisfied
